# Method: Microsomal stability assay, human liver microsomes;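 further: pooled human liver microsomes at 0.25 mg/mL with 1 µM compound and NADPH at 37 °C, pH 7.4, for 30 min, unchanged parent quantified by LC-MS/MS against the 0 min sample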
# Condition Description: human liver microsomes
Please respond with reported HLM for every item in the list.
Answer in µL/min/mg, number only, no unit symbol.

Problem: Consider the compound CC(=O)N[C@@H](Cc1cc(F)cc(-c2cccnc2)c1)[C@H](O)CN[C@H]1CC2(CCC2)Oc2ccc(CC(C)(C)C)cc21 and give its measured HLM.
Result: 706

Problem: Consider the compound shown here: CC(=O)N[C@@H](Cc1ccc(F)c(-c2ncc[nH]2)c1)[C@H](O)CN[C@H]1CC2(CCC2)Oc2ncc(CC(C)(C)C)cc21 What is its recorded HLM?
Result: 225

Problem: Fill blank: measured HLM of the compound COCC(=O)N[C@@H](Cc1ccncc1)[C@H](O)CN[C@H]1CC2(CCC2)Oc2c(-c3ccncc3)cc(CC(C)C)cc21 is ____.
Result: 94

Problem: Name the recorded HLM for CC(=O)N[C@@H](Cc1ccc(F)c(-c2ccco2)c1)[C@H](O)CN[C@H]1CC2(CCC2)Oc2ccc(CC(C)(C)C)cc21 .
Result: 280

Problem: Fill in: HLM of CO[C@H](C)C(=O)N[C@@H](Cc1cc(F)cc(F)c1)[C@H](O)CN[C@H]1CC2(CCC2)Oc2c1cc(CC(C)(C)C)nc2-c1ccncc1 is ___
Result: 14

Problem: Requested read-out: HLM. Entry: COCC(=O)N[C@@H](Cc1ccc(F)c(-c2cscn2)c1)[C@H](O)CN[C@H]1CC2(CCC2)Oc2ncc(CC(C)(C)C)cc21
Result: 102

---

# Method: Microsomal stability assay, rat liver microsomes;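 further: rat liver microsomes (0.25 mg/mL) with about 1 µM compound plus 1 mM NADPH, pH 7.4, 37 °C for 30 min, parent left measured by LC-MS/MS against 0 min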
# Condition Description: rat liver microsomes
Observation Type: RLM
Note to self: number, then unit, no commentary.

Problem: Look up RLM for this molecule: CO[C@H](C)C(=O)N[C@@H](Cc1ccc2c(c1)OCO2)[C@H](O)CN[C@H]1CC2(CCC2)C(=O)c2ncc(CC(C)(C)C)cc21
Result: 260 µL/min/mg

Problem: I am curious: what RLM value has been reported for COCC(=O)N[C@@H](Cc1ccc2c(c1)OCO2)[C@H](O)CN[C@H]1CC2(CCC2)Oc2ncc([C@H]3CC3(C)C)cc21 ?
Result: 209 µL/min/mg

Problem: Entry COCC(=O)N[C@@H](Cc1ccccc1)[C@H](O)CN[C@H]1CC2(CCC2)Oc2c(-c3cncn3C)cc(CC(C)C)cc21 has what RLM?
Result: 420 µL/min/mg

Problem: Requested field: RLM. Item: CO[C@H](C)C(=O)N[C@@H](Cc1ccc2c(c1)OCO2)[C@H](O)CN[C@H]1CC2(CCC2)Oc2ncc([C@H]3CC3(C)C)cc21
Result: 186 µL/min/mg

Problem: Can you share its RLM? I mean this molecule: CO[C@H](C)C(=O)N[C@@H](Cc1cc(F)cc(F)c1)[C@H](O)CN[C@H]1CC2(CCC2)Oc2c1cc(CC(C)C)nc2-c1ccncc1
Result: 91 µL/min/mg

Problem: I'd like to know its RLM. The molecule in question is COCC(=O)N[C@@H](Cc1cc(F)cc(-c2nccs2)c1)[C@H](O)CN[C@H]1CC2(CCC2)Oc2cnc(CC(C)(C)F)cc21
Result: 140 µL/min/mg

---

# Target Or System: Beta Secretase enzyme (BACE) (Homo sapiens, UniProt P56817)
# Sequence (P56817 46-501): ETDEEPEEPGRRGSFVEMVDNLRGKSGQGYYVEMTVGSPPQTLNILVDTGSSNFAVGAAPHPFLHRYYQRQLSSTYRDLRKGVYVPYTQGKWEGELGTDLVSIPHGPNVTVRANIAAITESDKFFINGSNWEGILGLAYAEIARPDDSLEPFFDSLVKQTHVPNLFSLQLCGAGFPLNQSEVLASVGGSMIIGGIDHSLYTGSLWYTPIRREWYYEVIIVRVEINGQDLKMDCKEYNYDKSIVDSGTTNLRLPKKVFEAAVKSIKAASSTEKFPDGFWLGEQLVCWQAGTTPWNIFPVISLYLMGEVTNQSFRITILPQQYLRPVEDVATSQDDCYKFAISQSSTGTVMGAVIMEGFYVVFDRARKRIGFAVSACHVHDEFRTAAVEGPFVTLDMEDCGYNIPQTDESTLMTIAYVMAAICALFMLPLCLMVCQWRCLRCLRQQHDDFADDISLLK
# Method: In vitro enzymatic BACE FRET (fluorescence resonance energy transfer) assay;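 further: fluorescence read after 1 h with 50 nM quenched peptide substrate spanning the BACE cleavage site, in pH 4.2 acetate buffer containing 10% DMSO and nonionic detergent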
# Type: biochemical
# Condition Description: BACE enzyme assay; read-out: BACE1 FRET assay (IC50)
Observation Type: IC50 (nM)
Report as a plain number; the unit nM is understood.

Problem: Recorded IC50 of CC(C)(C)Cc1cnc2c(c1)[C@@H](NC[C@@H](O)[C@H](Cc1ccc3c(c1)OCO3)NC(=O)C(F)(F)Cl)CC1(CCC1)O2 [compound 99] , please.
Result: 59.3

Problem: Which measured IC50 value corresponds to COCCNc1nc(CC(C)(C)C)cc2c1OC1(CCC1)C[C@@H]2NC[C@@H](O)[C@H](Cc1ccc(F)cc1)NC(C)=O [compound 149] ?
Result: 47.9

Problem: Which IC50 value is on record for COCC(=O)N[C@@H](Cc1ccc(F)cc1)[C@H](O)CN[C@H]1CC2(CCC2)Oc2ccc(CC(C)(C)C#N)cc21 [compound 162] ?
Result: 44.6

Problem: Record request: IC50 value, item CO[C@H](C)C(=O)N[C@@H](Cc1cccc(F)c1F)[C@H](O)CN[C@H]1CC2(CCC2)Oc2ncc(CC(C)(C)F)cc21 [compound 71]
Result: 33.9

Problem: Consider the compound CC(C)(C)Cc1cnc2c(c1)[C@@H](NC[C@@H](O)[C@H](Cc1ccc(F)cc1)NC(=O)[C@H](O)C(F)(F)F)CC1(CCC1)O2 [compound 68] and give its measured IC50.
Result: 48.6

Problem: Any idea what IC50 was measured for CC(=O)N[C@@H](Cc1ccc2c(c1)OCO2)[C@H](O)CN[C@H]1CC2(CCC2)Oc2ncc(CC(C)(C)C#N)cc21 [compound 88] ?
Result: 48.5

---

Assign pIC50 to each entry below.
# Target Or System: Beta Secretase enzyme (BACE) (Homo sapiens)
# Method: In vitro enzymatic BACE FRET (fluorescence resonance energy transfer) assay
# Type: biochemical
# Condition Description: BACE enzyme assay; read-out: BACE1 FRET assay
As a rule, pIC50 stands for the negative log10 of the concentration, concentration in M.

Problem: If you can, please state the reported pIC50 value of COCC(=O)N[C@@H](Cc1cc(F)cc(F)c1)[C@H](O)CN[C@H]1CC2(CCC2)Oc2c(-c3ccccc3F)cc(CC(C)(C)C)cc21 .
Result: 7.82

Problem: Would you mind telling me what pIC50 value was observed for COCC(=O)N[C@@H](Cc1cccc(F)c1)[C@H](O)CN[C@H]1CC2(CCC2)Oc2c1cc(CC(C)(C)C)nc2-c1ccncc1 ?
Result: 7.89

Problem: // returns reported pIC50 for input COCC(=O)N[C@@H](Cc1ccc(F)cc1)[C@H](O)CN[C@H]1CC2(CCC2)Oc2c1cc(CC(C)(C)C)nc2-c1ccncc1
Result: 7.15

---

# Target Or System: Beta Secretase enzyme (BACE) (Homo sapiens)
# Method: In vitro enzymatic BACE FRET (fluorescence resonance energy transfer) assay
# Format: biochemical
# Condition Description: BACE enzyme assay; read-out: BACE1 FRET assay
Binning scheme for IC50: low range = under 40 nM, mid range = from 40 nM up to 200 nM, high range = 200 nM and over

Problem: Form: Item = COCC(=O)N[C@@H](Cc1cccc(F)c1)[C@H](O)CN[C@@H]1CC2(CCC2)Oc2c1cc(CC(C)(C)C)nc2-n1ccnc1 ; Class = ?
Result: high range

Problem: Which class holds CO[C@H](C)C(=O)N[C@@H](Cc1cc(F)cc(F)c1)[C@H](O)CN[C@H]1CC2(CCC2)Oc2c(-c3cncs3)cc(CC(C)C)cc21 ?
Result: low range

Problem: Form field 'band' for CO[C@H](C)C(=O)N[C@@H](Cc1ccc2c(c1)OCO2)[C@H](O)CN[C@H]1CC2(CCC2)Oc2ncc(CC(F)(F)F)cc21
Result: high range

Problem: Quick check: band for CC(=O)N[C@@H](Cc1ccc(F)cc1)[C@H](O)CN[C@H]1CC2(CCC2)Oc2c1cc(CC(C)(C)C)nc2NC1CCC1
Result: mid range

Problem: Lab log: CO[C@H](C)C(=O)N[C@@H](Cc1cccc(F)c1)[C@H](O)CN[C@H]1CC2(CCC2)Oc2c1cc(CC(C)(C)C)cc2-n1ccnc1 — assign IC50 category
Result: mid range

Problem: Input CO[C@H](C)C(=O)N[C@@H](Cc1ccccc1)[C@H](O)CN[C@H]1CC2(CCC2)Oc2c1cc(CC(C)(C)C)nc2-c1ccncc1 ; output its category
Result: low range

Problem: Into which bin does this compound go? COCC(=O)N[C@@H](Cc1ccc(F)cc1)[C@H](O)CN[C@@H]1CC2(CCC2)Oc2c1cc(CC(C)(C)C)nc2C#N
Result: high range

Problem: Band assignment needed for CO[C@H](C)C(=O)N[C@@H](Cc1ccc2c(c1)OCO2)[C@H](O)CN[C@H]1CC2(CCC2)Oc2ccc(C[C@@H](C)F)cc21 please.
Result: high range

Problem: Kindly identify the class of CO[C@H](C)C(=O)N[C@@H](Cc1cc(F)cc(F)c1)[C@H](O)CN[C@H]1CC2(CCC2)Oc2c1cc(CC(C)(C)C)nc2-n1ccnc1 .
Result: low range

Problem: Band assignment needed for COCC(=O)N[C@@H](Cc1ccc2c(c1)OCO2)[C@H](O)CN[C@H]1CC2(CCC2)Oc2ccc(C[C@@H](C)F)cc21 [compound 558] please.
Result: high range

Problem: Bin? CC(=O)N[C@@H](Cc1ccc(F)cc1)[C@H](O)CN[C@H]1CC2(CCC2)Oc2c1cc(CC(C)(C)C)nc2N1CCOCC1
Result: mid range

Problem: Class for COCC(=O)N[C@@H](Cc1ccc(F)cc1)[C@H](O)CN[C@H]1CC2(CCC2)Oc2c(-c3ccncc3)cc(CC(C)(C)F)cc21 ?
Result: mid range

Problem: Could you place COCC(=O)N[C@@H](Cc1ccc(F)cc1)[C@H](O)CN[C@H]1CC2(CCC2)Oc2ncc(CC(C)(C)C#N)cc21 in its proper category? Many thanks.
Result: low range

The reported measurements were obtained from patent US8163909B2.
